The reported measurements were obtained from patent US20240368150A1.

- Tested on: primary human T-cells;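 also: cd3-stimulated proliferation read by CellTiter-Glo after 5 days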
observation_type: EC50 (nM)
# unit: nM | format: bare number

In the examples that follow, each entry is paired with its recorded EC50.
compound	reading_unit	EC50
CN(C)C(=O)c1nnc(-c2cc3c(cc2F)S(=O)(=O)C[C@H](N)C(=O)N3Cc2ccc(Cl)cc2)o1	nM	1530
COC(=O)N1CC2(c3nnc(-c4cc5c(cc4F)S(=O)(=O)C[C@H](N)C(=O)N5Cc4ccc(Cl)cc4)o3)CC1CO2 (stereo partly drawn)	nM	256

Query :: Look up EC50 for this compound: COC(F)(c1nc(-c2cc3c(cc2F)[S+]([O-])C[C@H](N)C(=O)N3Cc2ccc(F)cc2)no1)C(F)(F)F (stereo partly drawn)
Result :: 1920
